- assay.remarks: Human pregnane X receptor (PXR) small molecule agonists, qHTS cell viability counter screen (AID 1346977); also: nearly all actives have a fitted effect of over 50% in size
- measurement.context: PXR-Luc HepG2 viability, CellTiter-Fluor, 24 h; series mostly up to 92.4 µM
Results filed as inconclusive are left out. Calls of active or inactive are those of the source. Calls follow the shape of the dose curve; as a rule, active = well fitted cell-killing curve with a large enough effect in the repeat runs; inconclusive = weak or mixed curves, or effect the other way; inactive = flat fitted curve, though single readings scatter.
Outcome codes: label 1 (active), label 0 (inactive)

{"smiles.record": "CC[C@H]1O[C@]2(CC[C@@H]1C)C[C@@H]1C[C@@H](C/C=C(\\C)C[C@@H](C)/C=C/C=C3\\CO[C@@H]4[C@H](O)C(C)=C[C@@H](C(=O)O1)[C@]34O)O2", "label.value": "label 1"}
{"smiles.record": "NC(=O)CC[C@@H]1NC(=O)[C@H](Cc2ccccc2)NC(=O)[C@H](Cc2ccc(O)cc2)NC(=O)CCSSC[C@@H](C(=O)N2CCC[C@H]2C(=O)N[C@@H](CCCN=C(N)N)C(=O)NCC(N)=O)NC(=O)[C@H](CC(N)=O)NC1=O", "label.value": "label 0"}
{"smiles.record": "CC(C)(C)c1ccc(C(=O)CCCN2CCC(OC(c3ccccc3)c3ccccc3)CC2)cc1", "label.value": "label 1"}
{"smiles.record": "Fc1ccc([C@@H]2CCNC[C@H]2COc2ccc3c(c2)OCO3)cc1", "label.value": "label 1"}
{"smiles.record": "CCC1=C[C@@H]2CN(C1)Cc1c([nH]c3ccccc13)[C@@](C(=O)OC)(c1cc3c(cc1OC)N(C)[C@H]1[C@@](O)(C(=O)OC)[C@H](OC(C)=O)[C@]4(CC)C=CCN5CC[C@]31[C@@H]54)C2", "label.value": "label 1"}
